target: D(2) dopamine receptor (Rattus norvegicus, UniProt P61169); experiment: Displacement of [3H]spiperone from dopamine D2 receptor in rat striatal membranes
Sequence (P61169 whole entry): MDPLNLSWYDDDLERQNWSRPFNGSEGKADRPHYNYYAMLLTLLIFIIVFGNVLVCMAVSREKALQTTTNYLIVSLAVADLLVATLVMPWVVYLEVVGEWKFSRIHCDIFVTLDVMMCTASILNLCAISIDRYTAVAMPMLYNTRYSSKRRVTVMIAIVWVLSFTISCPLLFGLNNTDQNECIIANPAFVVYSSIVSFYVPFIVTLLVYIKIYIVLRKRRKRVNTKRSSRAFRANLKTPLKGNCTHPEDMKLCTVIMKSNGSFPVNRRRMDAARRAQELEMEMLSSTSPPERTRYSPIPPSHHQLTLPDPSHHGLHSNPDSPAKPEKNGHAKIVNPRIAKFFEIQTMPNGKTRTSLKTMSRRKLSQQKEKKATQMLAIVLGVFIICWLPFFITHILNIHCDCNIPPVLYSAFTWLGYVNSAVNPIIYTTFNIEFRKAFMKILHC
Collected Ki values appear next to each entry.
Write down the numeric answer in µM and omit the unit.

O=C1C2CC=CCC2C(=O)N1CCCCN1CCN(c2cccc(C(F)(F)F)c2)CC1 (cis isomer)	2.72
CC1C(=O)N(CCCCN2CCN(c3cccc(C(F)(F)F)c3)CC2)C(=O)C1C (configuration not stated)	4.37
O=C1C2CC=CCC2C(=O)N1C1CCC(N2CCN(c3cccc(C(F)(F)F)c3)CC2)CC1 (configuration not stated)	4.68

Continue with the molecule presented below.
Lookup: Quick check: Ki on D(2) dopamine receptor (Rattus norvegicus, UniProt P61169), item O=C1C2=C(CCCC2)C(=O)N1C1CCC(N2CCN(c3cccc(C(F)(F)F)c3)CC2)CC1 (configuration not stated) ?
Found: 2.64

====

species: Mus musculus; settings: Swiss Albino, 10 mg/kg
Description: Decrease in body temperature in Swiss Albino mouse at 10 mg/kg after 30 mins
deltaT by entry:
All answers are understood in °C, so give the number only.

Lookup: Could you tell me which deltaT is on file for O=C1C2=C(CCCC2)C(=O)N1CCCCN1CCN(c2cccc(C(F)(F)F)c2)CC1 ?
Found: 0.2

Lookup: Same thing, different compound: O=C1CCCC(=O)N1CCCCN1CCN(c2cccc(C(F)(F)F)c2)CC1
Found: -1.3

Lookup: // query: O=C1C2CC=CCC2C(=O)N1CCCCN1CCN(c2cccc(C(F)(F)F)c2)CC1 (cis isomer)
Found: -0.3

Lookup: What would you report for CC1C(=O)N(CCCCN2CCN(c3cccc(C(F)(F)F)c3)CC2)C(=O)C1C (stereo not given) ?
Found: -0.1

Lookup: Try O=C1C2CC=CCC2C(=O)N1C1CCC(N2CCN(c3cccc(C(F)(F)F)c3)CC2)CC1 (stereo not given) next.
Found: -1.7

====

biological target: 5-hydroxytryptamine receptor 7 (Homo sapiens); experiment: Displacement of [3H]5-CT from human 5HT7 expressed in HEK293 cells; type: cell-based
Sequence (P34969 whole entry): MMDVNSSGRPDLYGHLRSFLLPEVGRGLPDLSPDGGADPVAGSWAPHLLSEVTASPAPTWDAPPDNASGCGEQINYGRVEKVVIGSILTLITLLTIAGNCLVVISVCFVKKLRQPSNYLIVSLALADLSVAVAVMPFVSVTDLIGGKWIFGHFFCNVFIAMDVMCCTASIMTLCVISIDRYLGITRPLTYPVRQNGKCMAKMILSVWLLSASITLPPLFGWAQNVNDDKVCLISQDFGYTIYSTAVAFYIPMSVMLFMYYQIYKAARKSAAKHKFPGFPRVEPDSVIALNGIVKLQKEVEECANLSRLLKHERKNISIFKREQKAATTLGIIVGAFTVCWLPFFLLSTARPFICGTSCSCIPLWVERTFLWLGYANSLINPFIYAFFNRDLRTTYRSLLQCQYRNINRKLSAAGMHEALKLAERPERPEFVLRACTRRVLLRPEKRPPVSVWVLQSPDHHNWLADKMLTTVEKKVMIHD
pKi: −log10 of the molar value.
Label NO if pKi falls below 7; label YES in every other case.

O=C1C2CC=CCC2C(=O)N1CCCCN1CCN(c2cccc(C(F)(F)F)c2)CC1 (cis isomer)	YES
O=C1CCCC(=O)N1C1CCC(N2CCN(c3cccc(C(F)(F)F)c3)CC2)CC1 (trans isomer)	NO
CC1(C)CC(=O)N(CCCCN2CCN(c3cccc(C(F)(F)F)c3)CC2)C(=O)C1	YES

Next:
Lookup: I'd appreciate it if you could say whether CC1(C)CC(=O)N(C2CCC(N3CCN(c4cccc(C(F)(F)F)c4)CC3)CC2)C(=O)C1 (stereo unspecified) has pKi at least equal to 7.
Found: NO

====

organism: Mus musculus; details: Swiss Albino, 5 mg/kg
Description: Decrease in body temperature in Swiss Albino mouse at 5 mg/kg after 120 mins
quantity-measured: deltaT (°C)
State the answer as a number, implicitly in °C.

O=C1C2=C(CCCC2)C(=O)N1C1CCC(N2CCN(c3cccc(C(F)(F)F)c3)CC2)CC1 (stereo not given)	-0.3
O=C1CCCC(=O)N1CCCCN1CCN(c2cccc(C(F)(F)F)c2)CC1	-0.1
CC1C(=O)N(CCCCN2CCN(c3cccc(C(F)(F)F)c3)CC2)C(=O)C1C (stereo not given)	0
O=C1C2CC=CCC2C(=O)N1C1CCC(N2CCN(c3cccc(C(F)(F)F)c3)CC2)CC1 (stereo not given)	-0.1

Let us examine a further case.
Lookup: Requested read-out: deltaT. Entry: O=C1CCCC(=O)N1C1CCC(N2CCN(c3cccc(C(F)(F)F)c3)CC2)CC1 (trans isomer)
Found: -1.3

====

experiment: Displacement of [3H]prazosin from adrenergic alpha1 receptor in rat cortical membranes; format: cell membranes, Membrane
Listed below: Ki values for each entry.
# unit: nM | format: bare number

O=C1CCCC(=O)N1C1CCC(N2CCN(c3cccc(C(F)(F)F)c3)CC2)CC1 (trans isomer)	85
O=C1C2=C(CCCC2)C(=O)N1C1CCC(N2CCN(c3cccc(C(F)(F)F)c3)CC2)CC1 (centres undefined)	4
CC1(C)CC(=O)N(C2CCC(N3CCN(c4cccc(C(F)(F)F)c4)CC3)CC2)C(=O)C1 (centres undefined)	268
CC1C(=O)N(CCCCN2CCN(c3cccc(C(F)(F)F)c3)CC2)C(=O)C1C (centres undefined)	48
O=C1C2=C(CCCC2)C(=O)N1CCCCN1CCN(c2cccc(C(F)(F)F)c2)CC1	30

Lookup: What Ki value was documented for this molecule, CC1(C)CC(=O)N(CCCCN2CCN(c3cccc(C(F)(F)F)c3)CC2)C(=O)C1 ?
Found: 127

Lookup: # repeat for O=C1CCCC(=O)N1CCCCN1CCN(c2cccc(C(F)(F)F)c2)CC1
Found: 101

Lookup: // next record O=C1C2CC=CCC2C(=O)N1CCCCN1CCN(c2cccc(C(F)(F)F)c2)CC1 (cis isomer)
Found: 73

Lookup: Same question for O=C1C2CC=CCC2C(=O)N1C1CCC(N2CCN(c3cccc(C(F)(F)F)c3)CC2)CC1 (centres undefined) please.
Found: 43

====

species: Mus musculus; settings: Swiss Albino, 5 mg/kg
Description: Decrease in body temperature in Swiss Albino mouse at 5 mg/kg after 90 mins
quantity-measured: deltaT (°C)
# output: bare number, implied unit °C

Check out these entries, answers already filled in.
O=C1CCCC(=O)N1CCCCN1CCN(c2cccc(C(F)(F)F)c2)CC1	-0.4
CC1C(=O)N(CCCCN2CCN(c3cccc(C(F)(F)F)c3)CC2)C(=O)C1C (stereo not given)	-0.2
O=C1CCCC(=O)N1C1CCC(N2CCN(c3cccc(C(F)(F)F)c3)CC2)CC1 (trans isomer)	-1.5
O=C1C2CC=CCC2C(=O)N1C1CCC(N2CCN(c3cccc(C(F)(F)F)c3)CC2)CC1 (stereo not given)	-0.4

Next:
Lookup: Give its deltaT value. Item: O=C1C2=C(CCCC2)C(=O)N1C1CCC(N2CCN(c3cccc(C(F)(F)F)c3)CC2)CC1 (stereo not given)
Found: -0.7

====

test system: Mus musculus; experiment: Anxiolytic activity in Swiss Albino mouse assessed as number of punished crossings for 60 secs at 2.5 mg/kg administered 30 mins before the test by four-plate test; format: functional
quantity-measured: Activity

Examples with answers:
CC1(C)CC(=O)N(C2CCC(N3CCN(c4cccc(C(F)(F)F)c4)CC3)CC2)C(=O)C1 (centres undefined)	4.6
CC1(C)CC(=O)N(CCCCN2CCN(c3cccc(C(F)(F)F)c3)CC2)C(=O)C1	5.3
O=C1CCCC(=O)N1CCCCN1CCN(c2cccc(C(F)(F)F)c2)CC1	4.3

Lookup: Activity / Mus musculus / CN1C(=O)CN=C(c2ccccc2)c2cc(Cl)ccc21
Found: 6.8

====

organism: Mus musculus; settings: Swiss Albino, 5 mg/kg
Description: Decrease in body temperature in Swiss Albino mouse at 5 mg/kg after 30 mins
Catalogue of compounds with associated deltaT
Give the number; °C is assumed, so skip it.

Sample answers from the record:
O=C1C2CC=CCC2C(=O)N1C1CCC(N2CCN(c3cccc(C(F)(F)F)c3)CC2)CC1 (stereo not given)	-0.7
O=C1CCCC(=O)N1C1CCC(N2CCN(c3cccc(C(F)(F)F)c3)CC2)CC1 (trans isomer)	-1.6
O=C1C2=C(CCCC2)C(=O)N1C1CCC(N2CCN(c3cccc(C(F)(F)F)c3)CC2)CC1 (stereo not given)	-1.2
O=C1CCCC(=O)N1CCCCN1CCN(c2cccc(C(F)(F)F)c2)CC1	-0.5

Proceed to the following item.
Lookup: Fill in the blank: the reported deltaT of CC1C(=O)N(CCCCN2CCN(c3cccc(C(F)(F)F)c3)CC2)C(=O)C1C (stereo not given) is ____.
Found: -0.6

====

molecular target: D(2) dopamine receptor (Rattus norvegicus); test: Displacement of [3H]spiperone from dopamine D2 receptor in rat striatal membranes
pKi: −log10 of the molar value.
Each entry below carries its recorded pKi.

Sample answers from the record:
O=C1CCCC(=O)N1CCCCN1CCN(c2cccc(C(F)(F)F)c2)CC1	< 5.30
O=C1C2=C(CCCC2)C(=O)N1CCCCN1CCN(c2cccc(C(F)(F)F)c2)CC1	< 5.30

Lookup: What does the record list as pKi for O=C1CCCC(=O)N1C1CCC(N2CCN(c3cccc(C(F)(F)F)c3)CC2)CC1 (trans isomer) ?
Found: < 5.30
